System: P388 leukemia ip, CD2F1 mice, survival T/C
Experiment: NCI In Vivo Anticancer Drug Screen. Data for tumor model P388 Leukemia (intraperitoneal) in CD2F1 (CDF1) mice
Conditions: endpoint: median survival time; dose: 25.0 mg/kg/injection; schedule: Q01DX009 (ip); vehicle: saline with Tween-80; higher = longer survival
Inconclusive results and toxic doses are left out.
Kindly state T/C for each of the entries shown.

Query for P388 leukemia ip, CD2F1 mice, survival T/C: what T/C does the record show for C(=Nc1cnc2ccccc2c1)c1ccnc2ccccc12 ?
98 % of control

What value of T/C on P388 leukemia ip, CD2F1 mice, survival T/C does COc1cccc(N=Nc2c(N)nc(N)nc2N)c1 have?
108 % of control

So what T/C did NC(=S)c1cccc(C=O)n1 get with P388 leukemia ip, CD2F1 mice, survival T/C?
99 % of control

For P388 leukemia ip, CD2F1 mice, survival T/C, provide T/C of Clc1ccc2nsnc2c1 please.
95 % of control

Short answer please: T/C, P388 leukemia ip, CD2F1 mice, survival T/C, entry CC1(C)CC(N)=CC(=S)N1
97 % of control

Hi! What's the reported T/C for CCCCCCCCCCCCCCCCCCSC1=CC(=O)c2ccccc2C1=O on P388 leukemia ip, CD2F1 mice, survival T/C?
89 % of control

Reported T/C for P388 leukemia ip, CD2F1 mice, survival T/C, given Nc1nc(N)c2cc(Sc3ccc(Cl)cc3)ccc2n1 ?
118 % of control
